# reported GI50; entries follow
- Tested on: KM-20L2
- method-notes: NCI tumour cell line growth inhibition, 48 h
The source made the active and inactive calls. No stated cut-off is given here; in the data, active = GI50 up to about 1.1 µM and inactive = higher.
measured-property: GI50

[
  {
    "compound": "C=CCc1cc(OC)c2c(c1)C(OC(C)=O)CC(c1ccc(OC)c(OC)c1)O2 (stereo not drawn)",
    "test-value": "> 100 µM (inactive)"
  },
  {
    "compound": "COC(=O)c1ccccc1NC(=O)C(=O)CC(=O)CC(c1ccccc1)c1c(O)c2ccccc2oc1=O (stereo not drawn)",
    "test-value": "> 100 µM (inactive)"
  },
  {
    "compound": "COc1cc2c(cc1O)C1C(O)C(O)C=C3CCN(C2)C31 (stereo not drawn)",
    "test-value": "2.34 µM (inactive)"
  },
  {
    "compound": "C=C1C(=O)OC2/C=C(\\C)C(OC(C)=O)C3OC3C(C)(O)CC(OC(=O)/C(C)=C/C)C12 (stereo not drawn)",
    "test-value": "4.46 µM (inactive)"
  },
  {
    "compound": "C=CCn1c(=O)n(CC=C)c(=O)n(CC=C)c1=O",
    "test-value": "> 100 µM (inactive)"
  },
  {
    "compound": "CN(C)NC(=O)NC12CC3CC(CC(C3)C1)C2",
    "test-value": "> 100 µM (inactive)"
  },
  {
    "compound": "COC(=O)[C@H]1C=C[C@@H](C)n2c(=O)c3cc4ccccc4cc3c(=O)n21",
    "test-value": "> 100 µM (inactive)"
  },
  {
    "compound": "Cc1cc2c(cc1C)[n+]([O-])c(C(=O)/C=C/c1ccc3c(c1)OCO3)c(C)[n+]2[O-]",
    "test-value": "> 100 µM (inactive)"
  },
  {
    "compound": "Nc1ncnc2c1ncn2C1CCC(CO)O1 (stereo not drawn)",
    "test-value": "> 100 µM (inactive)"
  },
  {
    "compound": "c1ccc(C(c2ccccc2)c2ccccn2)cc1",
    "test-value": "> 100 µM (inactive)"
  },
  {
    "compound": "CC(C)=CC(=O)Cc1nc2ccccc2[nH]c1=O",
    "test-value": "> 100 µM (inactive)"
  },
  {
    "compound": "Cc1cc(Cl)ccc1NC(=O)C1C(=O)N(c2ccc(Cl)cc2C)C(=O)/C1=N\\N (stereo not drawn)",
    "test-value": "36 µM (inactive)"
  },
  {
    "compound": "CCO/C=C1\\N=C(c2ccc(Cl)c(Cl)c2)OC1=O",
    "test-value": "> 100 µM (inactive)"
  }
]

---

# reported GI50; entries follow
- Tested on: NCI/ADR-RES
- method-notes: NCI tumour cell line growth inhibition, 48 h
The source made the active and inactive calls. Rule as the data show it: active = GI50 up to about 1.1 µM and inactive = higher.

[
  {
    "compound": "C=CCc1oc(C)nc1CCCC",
    "GI50": "> 100 µM (inactive)"
  },
  {
    "compound": "CC1(C(=O)O)CCCC1C(=O)O (stereo not drawn)",
    "GI50": "> 100 µM (inactive)"
  },
  {
    "compound": "C/C(CC(O)(C(F)(F)F)C(F)(F)F)=N\\O",
    "GI50": "> 10 µM (inactive)"
  }
]

---

Assay system HCT-15; read-out recorded as GI50.
Where a SMILES comes first, the peptide text is derived from it. The star is where a group is joined. Cbz = O=C(OCc1ccccc1)*; Boc = CC(C)(C)OC(=O)*; Bn = c1ccc(C*)cc1

[
  {
    "compound": "Cn1c2c(c3ccccc31)CCN=C2C1CCCOC1=O (stereo not given)",
    "tested-system": "HCT-15",
    "cmp": ">",
    "GI50 (µM)": 100
  },
  {
    "compound": "CC(C)(C)OC(=O)NC(Cc1ccc(OCc2ccccc2)cc1)C(=O)NC(CCCCNC(=O)OCc1ccccc1)C(=O)O (stereo not given) (Boc-Tyr(Bn)-Lys(Cbz)-OH; configuration not given here)",
    "tested-system": "HCT-15",
    "cmp": ">",
    "GI50 (µM)": 10
  },
  {
    "compound": "CC1(C)C2CCC(CN)(C2)C1N (stereo not given)",
    "tested-system": "HCT-15",
    "cmp": ">",
    "GI50 (µM)": 100
  },
  {
    "compound": "COc1ccc(C(SCCO)(c2ccccc2)c2ccccc2)cc1",
    "tested-system": "HCT-15",
    "cmp": "=",
    "GI50 (µM)": 11.9
  },
  {
    "compound": "COC(=O)C1=C(C(=O)OC)C2(c3ccccc3)OC1(c1ccccc1)c1cc3ccccc3cc12",
    "tested-system": "HCT-15",
    "cmp": "=",
    "GI50 (µM)": 1.82
  }
]

---

- System: NCI/ADR-RES
- method-notes: NCI tumour cell line growth inhibition, 48 h
The source made the active and inactive calls. No stated cut-off is given here; in the data, active = GI50 up to about 1.1 µM and inactive = higher.
measured-property: GI50

[
  {
    "compound": "Cc1ccc(Cc2nnc(S)[nH]2)cc1",
    "measured-property": "GI50",
    "test-value": "77.6 µM (inactive)"
  },
  {
    "compound": "CCOC(=O)C(COS(C)(=O)=O)(COS(C)(=O)=O)C(=O)OCC",
    "measured-property": "GI50",
    "test-value": "> 100 µM (inactive)"
  },
  {
    "compound": "CC(C)[Si](OC1=CCC[C@H]2NC(=O)[C@@H](Cc3ccccc3)[C@@]12C)(C(C)C)C(C)C",
    "measured-property": "GI50",
    "test-value": "6.49 µM (inactive)"
  },
  {
    "compound": "Cc1ccc(-c2c3nc(c(-c4ccc(C)cc4)c4ccc([nH]4)c(-c4ccc(OCC5COC(C)(C)O5)cc4)c4nc(c(-c5ccc(C)cc5)c5ccc2[nH]5)C=C4)C=C3)cc1 (centres undefined)",
    "measured-property": "GI50",
    "test-value": "> 31.6 µM (inactive)"
  }
]

---

- Test system: M14
- method-notes: NCI tumour cell line growth inhibition, 48 h
Calls of active or inactive are those of the source. Rule as the data show it: active = GI50 up to about 1.1 µM and inactive = higher.
Labels: active, inactive

[
  {
    "compound": "C[C@@H]1C[C@H]2CC[C@H](O2)[C@H](C)C(=O)O[C@@H](C)C[C@@H]2CC[C@@H](O2)[C@@H](C)C(=O)O[C@H](C)C[C@H]2CC[C@H](O2)[C@H](C)C(=O)O[C@@H](C)C[C@@H]2CC[C@@H](O2)[C@@H](C)C(=O)O1",
    "tested-system": "M14",
    "assigned-label": "active"
  },
  {
    "compound": "COc1ccc(C(SCCO)(c2ccccc2)c2ccccc2)cc1",
    "tested-system": "M14",
    "assigned-label": "inactive"
  },
  {
    "compound": "C#CCC1(C(=O)OCC)C(=O)c2ccccc2N(C)C1=O (stereo not given)",
    "tested-system": "M14",
    "assigned-label": "inactive"
  },
  {
    "compound": "COc1cc(OC)cc(C(=O)CC(=O)c2cc(OC)cc(OC)c2)c1",
    "tested-system": "M14",
    "assigned-label": "inactive"
  },
  {
    "compound": "Cc1cc(-c2ccc(C(=O)C(Cl)(Cl)Cl)[nH]2)on1",
    "tested-system": "M14",
    "assigned-label": "inactive"
  },
  {
    "compound": "COc1cc2c(cc1OCCCN1CCOCC1)N=C[C@@H]1CCCN1C2=O",
    "tested-system": "M14",
    "assigned-label": "inactive"
  },
  {
    "compound": "O=C1OCC2=Nc3cccc4cccc(c34)N12",
    "tested-system": "M14",
    "assigned-label": "inactive"
  },
  {
    "compound": "OC1(c2ccc(Cl)cc2)c2c(c3ccccc3c3ccccc23)C2=NCCN21 (stereo not given)",
    "tested-system": "M14",
    "assigned-label": "inactive"
  },
  {
    "compound": "O=[N+]([O-])/C(Cl)=C(\\Sc1ccccc1)C(Cl)=C(Cl)Cl",
    "tested-system": "M14",
    "assigned-label": "active"
  },
  {
    "compound": "NC(=O)C1=NNc2ccccc2C(=O)N1c1ccccc1",
    "tested-system": "M14",
    "assigned-label": "inactive"
  }
]

---

- System: PC-3
- method-notes: NCI tumour cell line growth inhibition, 48 h
Activity calls are given as the source filed them. Cut-off read from the data, not from the text of the source: active = GI50 up to about 1.1 µM and inactive = higher.
measured-property: GI50

[
  {
    "compound": "C=C[C@]1(C)CC[C@]2(C)C(CC[C@@]3(C)C2C[C@H](O)[C@H](O)[C@@]3(C)O)C1 (some centres not stated)",
    "test-value": "> 100 µM (inactive)"
  },
  {
    "compound": "S=C(N/N=C/c1ccccn1)N1CC2CCC(CC2)C1",
    "test-value": "< 0.01 µM (active)"
  },
  {
    "compound": "COc1ccc(CCNC(=O)CCc2ccccc2CO)cc1OC",
    "test-value": "> 100 µM (inactive)"
  },
  {
    "compound": "Cc1cn(C2C=CC(COP(=O)(OCc3ccc([N+](=O)[O-])o3)N(C)CCCCCl)O2)c(=O)[nH]c1=O (configuration not stated)",
    "test-value": "12.8 µM (inactive)"
  },
  {
    "compound": "O=Cc1cn(CCCCCn2cc(C=O)c3ccccc32)c2ccccc12",
    "test-value": "> 100 µM (inactive)"
  },
  {
    "compound": "COc1ccc(NS(=O)(=O)c2ccc(NC(NC(=O)CC(C)C)(C(F)(F)F)C(F)(F)F)cc2)nn1",
    "test-value": "> 100 µM (inactive)"
  },
  {
    "compound": "O=c1[nH]cnc2c1sc1nc3ccccc3n12",
    "test-value": "88.5 µM (inactive)"
  },
  {
    "compound": "Cc1c(NC(=O)c2cc([N+](=O)[O-])cc([N+](=O)[O-])c2)c(=O)n(-c2ccccc2)n1C",
    "test-value": "49.8 µM (inactive)"
  },
  {
    "compound": "C=C1C(O)C[C@H](OC(C)=O)[C@]2(C)C1C(OC(C)=O)[C@]1(C(C)(C)O)CC(O)C(C)=C1[C@@H](OC(=O)c1ccccc1)C2OC(C)=O (some centres not stated)",
    "test-value": "> 10 µM (inactive)"
  },
  {
    "compound": "Cc1cc(NS(=O)(=O)c2ccc(/N=[N+](\\[O-])c3ccc(S(=O)(=O)Nc4cc(C)on4)cc3)cc2)no1",
    "test-value": "> 100 µM (inactive)"
  },
  {
    "compound": "Cc1cc2c(O)c(c1)CN(Cc1ccccc1)Cc1cc(C)cc(c1O)CN(Cc1ccccc1)Cc1cc(C)cc(c1O)CN(Cc1ccccc1)C2",
    "test-value": "> 100 µM (inactive)"
  },
  {
    "compound": "CC[C@@]1(O)C(=O)OCc2c1cc1n(c2=O)Cc2c-1nc1ccccc1c2CC[Si](C)(C)C [COSITECAN]",
    "test-value": "< 0.0389 µM (active)"
  }
]
